Biological target: Polyunsaturated fatty acid 5-lipoxygenase (Homo sapiens) (UniProt P09917)
Sequence (P09917 whole entry): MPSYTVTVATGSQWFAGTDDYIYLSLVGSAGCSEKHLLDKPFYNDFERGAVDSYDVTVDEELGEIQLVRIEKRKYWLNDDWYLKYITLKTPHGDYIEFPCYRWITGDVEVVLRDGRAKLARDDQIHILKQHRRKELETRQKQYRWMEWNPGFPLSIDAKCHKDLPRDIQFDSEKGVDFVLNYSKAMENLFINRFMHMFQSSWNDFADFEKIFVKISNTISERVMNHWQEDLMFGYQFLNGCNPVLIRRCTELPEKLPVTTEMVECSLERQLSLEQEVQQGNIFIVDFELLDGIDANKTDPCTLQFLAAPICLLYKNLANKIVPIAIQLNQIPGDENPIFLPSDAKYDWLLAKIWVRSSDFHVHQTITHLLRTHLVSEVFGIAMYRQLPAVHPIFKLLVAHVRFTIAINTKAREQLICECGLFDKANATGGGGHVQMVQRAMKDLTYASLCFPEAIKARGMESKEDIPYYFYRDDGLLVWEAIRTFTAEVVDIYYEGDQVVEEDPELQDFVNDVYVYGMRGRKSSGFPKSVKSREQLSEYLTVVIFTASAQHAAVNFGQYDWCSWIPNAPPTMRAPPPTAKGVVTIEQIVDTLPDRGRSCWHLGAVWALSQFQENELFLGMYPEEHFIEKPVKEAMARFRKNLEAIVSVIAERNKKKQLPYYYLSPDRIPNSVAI
Assay: Inhibition of 5-lipoxygenase in human intact polymorphonuclear leukocytes assessed as suppression of A23187-induced product formation at 1 uM
Parameters: scale not given: the % may be the effect or the level left
Calls of active or inactive are those of the source. The calls are words filed in the database; no cut-off is given here.

compound: CCOC(=O)CSc1nc(Cl)cc(Nc2cccc3c2CCC3)n1
target: Polyunsaturated fatty acid 5-lipoxygenase (Homo sapiens) (UniProt P09917)
Activity: 65.2%

compound: CCCCCCC(Sc1nc(Cl)cc(Oc2ccc3ncccc3c2)n1)C(=O)O (configuration not stated)
target: Polyunsaturated fatty acid 5-lipoxygenase (Homo sapiens) (UniProt P09917)
Activity: 91.4%

compound: CCOC(=O)CSc1nc(Cl)cc(Nc2cccc(C)c2C)n1
target: Polyunsaturated fatty acid 5-lipoxygenase (Homo sapiens) (UniProt P09917)
Activity: 76.9%

compound: CCCCCCC(Sc1nc(Cl)cc(Oc2ccc3ncccc3c2)n1)C(=O)OCC (configuration not stated)
target: Polyunsaturated fatty acid 5-lipoxygenase (Homo sapiens) (UniProt P09917)
Activity: 67.4%

compound: CCCCCCC(Sc1nc(Cl)cc(Nc2cccc(C)c2C)n1)C(=O)O (configuration not stated)
target: Polyunsaturated fatty acid 5-lipoxygenase (Homo sapiens) (UniProt P09917)
Activity: 64.3%

compound: Cc1cccc(Nc2cc(Cl)nc(SC(C(=O)O)c3ccccc3)n2)c1C (configuration not stated)
target: Polyunsaturated fatty acid 5-lipoxygenase (Homo sapiens) (UniProt P09917)
Activity: inactive

compound: CCCCC(Sc1nc(Cl)cc(Nc2ccc3ncccc3c2)n1)C(=O)O (configuration not stated)
target: Polyunsaturated fatty acid 5-lipoxygenase (Homo sapiens) (UniProt P09917)
Activity: inactive

compound: Cc1cccc(Nc2cc(Cl)nc(SCC(=O)O)n2)c1C
target: Polyunsaturated fatty acid 5-lipoxygenase (Homo sapiens) (UniProt P09917)
Activity: inactive

compound: O=C(O)CSc1nc(Cl)cc(Oc2ccc3ncccc3c2)n1
target: Polyunsaturated fatty acid 5-lipoxygenase (Homo sapiens) (UniProt P09917)
Activity: inactive

compound: CCOC(=O)CSc1nc(Cl)cc(OCc2ccc3ncccc3c2)n1
target: Polyunsaturated fatty acid 5-lipoxygenase (Homo sapiens) (UniProt P09917)
Activity: 80%

compound: CCCCCCC(Sc1nc(Cl)cc(NCc2ccc3ncccc3c2)n1)C(=O)OCC (configuration not stated)
target: Polyunsaturated fatty acid 5-lipoxygenase (Homo sapiens) (UniProt P09917)
Activity: 57.4%

compound: CCOC(=O)CSc1nc(Cl)cc(Oc2ccc3ncccc3c2)n1
target: Polyunsaturated fatty acid 5-lipoxygenase (Homo sapiens) (UniProt P09917)
Activity: inactive

compound: CCCCC(Sc1nc(Cl)cc(Nc2ccc3ncccc3c2)n1)C(=O)OCC (configuration not stated)
target: Polyunsaturated fatty acid 5-lipoxygenase (Homo sapiens) (UniProt P09917)
Activity: 51.8%

compound: CCCCCCC(Sc1nc(Cl)cc(Nc2ccc3ncccc3c2)n1)C(=O)O (configuration not stated)
target: Polyunsaturated fatty acid 5-lipoxygenase (Homo sapiens) (UniProt P09917)
Activity: inactive

compound: CCOC(=O)C(Sc1nc(Cl)cc(Nc2cccc(C)c2C)n1)c1ccccc1 (configuration not stated)
target: Polyunsaturated fatty acid 5-lipoxygenase (Homo sapiens) (UniProt P09917)
Activity: 53.1%

compound: CC(Sc1nc(Cl)cc(Nc2ccc3ncccc3c2)n1)C(=O)O (configuration not stated)
target: Polyunsaturated fatty acid 5-lipoxygenase (Homo sapiens) (UniProt P09917)
Activity: inactive

compound: CCOC(=O)C(C)Sc1nc(Cl)cc(Nc2ccc3ncccc3c2)n1 (configuration not stated)
target: Polyunsaturated fatty acid 5-lipoxygenase (Homo sapiens) (UniProt P09917)
Activity: inactive
